// data source = patent US20040176431A1

target: CDK4/cyclin D3 (Homo sapiens, UniProt P11802)
Construct: made in house; host or cells: insect cells (baculovirus co-infection)
Sequence (P11802 whole entry): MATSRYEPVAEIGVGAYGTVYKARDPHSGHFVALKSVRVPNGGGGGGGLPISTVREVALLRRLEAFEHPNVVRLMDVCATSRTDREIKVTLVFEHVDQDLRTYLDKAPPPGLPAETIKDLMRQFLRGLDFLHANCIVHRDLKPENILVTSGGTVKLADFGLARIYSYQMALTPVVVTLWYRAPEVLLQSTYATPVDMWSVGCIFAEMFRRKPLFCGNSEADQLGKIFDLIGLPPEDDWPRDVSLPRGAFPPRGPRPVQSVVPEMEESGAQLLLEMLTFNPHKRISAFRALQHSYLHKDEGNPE
Sequence (P30281 1-264 partner limits assumed): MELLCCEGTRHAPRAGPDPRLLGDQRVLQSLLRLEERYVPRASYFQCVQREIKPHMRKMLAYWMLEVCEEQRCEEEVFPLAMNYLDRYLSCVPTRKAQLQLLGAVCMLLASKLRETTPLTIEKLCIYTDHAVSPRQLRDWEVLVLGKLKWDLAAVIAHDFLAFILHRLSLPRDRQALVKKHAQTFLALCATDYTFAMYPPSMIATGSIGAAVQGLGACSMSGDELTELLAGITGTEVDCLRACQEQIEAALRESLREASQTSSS
test_method_notes: Inhibition of CDK4/Cyclin D retinoblastoma kinase activity;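 as to % Inhib CDK4/D @ 1 μM: relative to DMSO control wells without compound minus no-enzyme background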
Assay type: biochemical
condition_context: test compound at 1 μM (head line shifted: 'mM' printed beside 'Structure'); read-out: % Inhib CDK4/D @ 1 μM

molecule | inhibition at 1 µM / %
CCOCC[S+]([O-])c1ccc(Nc2nc(N)c(C(=O)c3c(Cl)cccc3Cl)s2)cc1 (centres unmarked) [DD(113)] | 59.4
CC(C)CCCSc1ccc(Nc2nc(N)c(C(=O)c3c(Cl)cccc3Cl)s2)cc1 [DD(30)] | 32.3
Cc1noc(C)c1CSc1cccc(Nc2nc(N)c(C(=O)c3c(Cl)cccc3Cl)s2)c1 [DD(42)] | 63.7
CCCSc1cccc(Nc2nc(N)c(C(=O)c3c(Cl)cccc3Cl)s2)c1 [DD(65)] | 51.1
Nc1nc(Nc2cccc([S+]([O-])Cc3ccncc3)c2)sc1C(=O)c1c(Cl)cccc1Cl (centres unmarked) [DD(155)] | 59.6
CC(C)(CO)C[S+]([O-])c1ccc(Nc2nc(N)c(C(=O)c3c(Cl)cccc3Cl)s2)cc1 (centres unmarked) [DD(120)] | 57.1
CN(C)CCCSc1cccc(Nc2nc(N)c(C(=O)c3c(Cl)cccc3Cl)s2)c1 [DD(50)] | 80.3
COCC[S+]([O-])c1cccc(Nc2nc(N)c(C(=O)c3c(Cl)cccc3Cl)s2)c1 (centres unmarked) [DD(134)] | 49.9

----------
target: CDK4/cyclin D3 (Homo sapiens)
Construct: made in house; host or cells: insect cells (baculovirus co-infection)
test_method_notes: Inhibition of CDK4/Cyclin D retinoblastoma kinase activity
Format: biochemical
condition_context: test compound at 0.03 (unit cell empty, head line shifted; μM); read-out: % Inhib CDK4/D @ 0.03

molecule | inhibition at 0.03 µM, %
Nc1nc(Nc2ccc(SCCN3CCOCC3)cc2)sc1C(=O)c1c(Cl)cccc1Cl | 0.2
Nc1nc(Nc2ccc(S(=O)(=O)Cc3ccccc3)cc2)sc1C(=O)c1c(Cl)cccc1Cl | 3.8
CCOC(=O)CCSc1cccc(Nc2nc(N)c(C(=O)c3c(Cl)cccc3Cl)s2)c1 | 6.4
CCC(CC)S(=O)(=O)c1ccc(Nc2nc(N)c(C(=O)c3c(Cl)cccc3Cl)s2)cc1 | 1.3
CCC(CC)CSc1ccc(Nc2nc(N)c(C(=O)c3c(Cl)cccc3Cl)s2)cc1 | 9
CC1(CSc2ccc(Nc3nc(N)c(C(=O)c4c(Cl)cccc4Cl)s3)cc2)CO1 (stereo not shown) | 4.2
Nc1nc(Nc2cccc(SCCN3CCCCC3)c2)sc1C(=O)c1c(Cl)cccc1Cl | 4.1
CC(=O)OCC[S+]([O-])c1cccc(Nc2nc(N)c(C(=O)c3c(Cl)cccc3Cl)s2)c1 (stereo not shown) | 21
CC(CN(C)C)C[S+]([O-])c1ccc(Nc2nc(N)c(C(=O)c3c(Cl)cccc3Cl)s2)cc1 (stereo not shown) | -17
Nc1nc(Nc2cccc([S+]([O-])CCN3CCCC3)c2)sc1C(=O)c1c(Cl)cccc1Cl (stereo not shown) | -4.3

----------
target: CDK4/cyclin D3 (Homo sapiens)
Construct: made in house; host or cells: insect cells (baculovirus co-infection)
test_method_notes: Inhibition of CDK4/Cyclin D retinoblastoma kinase activity;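 as to % Inhib CDK4/D @ 1 μM: relative to DMSO control wells without compound minus no-enzyme background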
Assay type: biochemical
condition_context: test compound at 1 μM (head line shifted: 'mM' printed beside 'Structure'); read-out: % Inhib CDK4/D @ 1 μM
readout_name: inhibition at 1 µM

molecule | readout_name | value_measured
COC(=O)/C=C/C[S+]([O-])c1ccc(Nc2nc(N)c(C(=O)c3c(Cl)cccc3Cl)s2)cc1 (stereo not shown) | inhibition at 1 µM | 45.7%
CC(C)(CO)CSc1cccc(Nc2nc(N)c(C(=O)c3c(Cl)cccc3Cl)s2)c1 | inhibition at 1 µM | 56%
CCOC(=O)CC[S+]([O-])c1ccc(Nc2nc(N)c(C(=O)c3c(Cl)cccc3Cl)s2)cc1 (stereo not shown) | inhibition at 1 µM | 46.2%
CC(C)=CCSc1cccc(Nc2nc(N)c(C(=O)c3c(Cl)cccc3Cl)s2)c1 | inhibition at 1 µM | 22.1%

----------
target: CDK4/cyclin D3 (Homo sapiens)
Construct: made in house; host or cells: insect cells (baculovirus co-infection)
test_method_notes: Inhibition of CDK4/Cyclin D retinoblastoma kinase activity
Type: biochemical
condition_context: test compound at 0.03 (unit cell empty, head line shifted; μM); read-out: % Inhib CDK4/D @ 0.03
In this section, each of the compounds is paired with its reported inhibition at 0.03 µM.

compound | inhibition at 0.03 µM [%]
Nc1nc(Nc2cccc(SCC3CNC(=O)O3)c2)sc1C(=O)c1c(Cl)cccc1Cl (stereo not drawn) [DD(49)] | 12
CC(C)OC(=O)C[S+]([O-])c1ccc(Nc2nc(N)c(C(=O)c3c(Cl)cccc3Cl)s2)cc1 (stereo not drawn) [DD(103)] | -2.9
Cc1noc(C)c1C[S+]([O-])c1ccc(Nc2nc(N)c(C(=O)c3c(Cl)cccc3Cl)s2)cc1 (stereo not drawn) [DD(82)] | -3.3
Nc1nc(Nc2ccc([S+]([O-])CC3CNC(=O)O3)cc2)sc1C(=O)c1c(Cl)cccc1Cl (stereo not drawn) [DD(89)] | -29
CN(C)CC[S+]([O-])c1ccc(Nc2nc(N)c(C(=O)c3c(Cl)cccc3Cl)s2)cc1 (stereo not drawn) [DD(112)] | -4.9
Nc1nc(Nc2ccc(SCC3CC3)cc2)sc1C(=O)c1c(Cl)cccc1Cl [DD(16)] | -9.4
Cc1noc(C)c1C[S+]([O-])c1cccc(Nc2nc(N)c(C(=O)c3c(Cl)cccc3Cl)s2)c1 (stereo not drawn) [DD(122)] | 16
Nc1nc(Nc2cccc([S+]([O-])CC3CCCO3)c2)sc1C(=O)c1c(Cl)cccc1Cl (stereo not drawn) [DD(138)] | 2.9
Cc1noc(C)c1CSc1cccc(Nc2nc(N)c(C(=O)c3c(Cl)cccc3Cl)s2)c1 [DD(42)] | 29

----------
target: CDK4/cyclin D3 (Homo sapiens, UniProt P11802)
Construct: made in house; host or cells: insect cells (baculovirus co-infection)
test_method_notes: Inhibition of CDK4/Cyclin D retinoblastoma kinase activity
Type: biochemical
condition_context: test compound at 0.1 μM; read-out: % Inhib CDK4/D @ 0.1 μM
Outcome label depends on inhibition at 0.1 µM relative to 20%: at/above gives yes (1), below gives no (0).

compound | qualitative_label
CC(=O)OCCSc1cccc(Nc2nc(N)c(C(=O)c3c(Cl)cccc3Cl)s2)c1 [DD(77)] | yes (1)
CC(C)(CO)CSc1cccc(Nc2nc(N)c(C(=O)c3c(Cl)cccc3Cl)s2)c1 [DD(80)] | no (0)
NC(=O)CCSc1cccc(Nc2nc(N)c(C(=O)c3c(Cl)cccc3Cl)s2)c1 [DD(68)] | yes (1)
NC(=O)CC[S+]([O-])c1cccc(Nc2nc(N)c(C(=O)c3c(Cl)cccc3Cl)s2)c1 (stereo not drawn) [DD(148)] | yes (1)
CC(C)CCCSc1ccc(Nc2nc(N)c(C(=O)c3c(Cl)cccc3Cl)s2)cc1 [DD(30)] | no (0)
CC(C)CCCSc1cccc(Nc2nc(N)c(C(=O)c3c(Cl)cccc3Cl)s2)c1 [DD(70)] | no (0)
Nc1nc(Nc2ccc([S+]([O-])Cc3ccncc3)cc2)sc1C(=O)c1c(Cl)cccc1Cl (stereo not drawn) [DD(115)] | yes (1)
Nc1nc(Nc2ccc([S+]([O-])CCCO)cc2)sc1C(=O)c1c(Cl)cccc1Cl (stereo not drawn) [DD(85)] | yes (1)
Nc1nc(Nc2cccc([S+]([O-])CCN3CCOCC3)c2)sc1C(=O)c1c(Cl)cccc1Cl (stereo not drawn) [DD(159)] | yes (1)
Nc1nc(Nc2ccc(S(=O)(=O)CC3CC3)cc2)sc1C(=O)c1c(Cl)cccc1Cl [DD(176)] | no (0)
CCOCC[S+]([O-])c1cccc(Nc2nc(N)c(C(=O)c3c(Cl)cccc3Cl)s2)c1 (stereo not drawn) [DD(153)] | yes (1)
CN1CCCC(CS(=O)(=O)c2ccc(Nc3nc(N)c(C(=O)c4c(Cl)cccc4Cl)s3)cc2)C1 (stereo not drawn) [DD(187)] | yes (1)
Nc1nc(Nc2ccc([S+]([O-])CCN3CCCCC3)cc2)sc1C(=O)c1c(Cl)cccc1Cl (stereo not drawn) [DD(91)] | yes (1)
C=CCC[S+]([O-])c1ccc(Nc2nc(N)c(C(=O)c3c(Cl)cccc3Cl)s2)cc1 (stereo not drawn) [DD(86)] | yes (1)
CN(C)CC[S+]([O-])c1cccc(Nc2nc(N)c(C(=O)c3c(Cl)cccc3Cl)s2)c1 (stereo not drawn) [DD(152)] | yes (1)
Nc1nc(Nc2ccc(S(=O)(=O)CC3CO3)cc2)sc1C(=O)c1c(Cl)cccc1Cl (stereo not drawn) [DD(172)] | yes (1)
Nc1nc(Nc2cccc([S+]([O-])CC3CC3)c2)sc1C(=O)c1c(Cl)cccc1Cl (stereo not drawn) [DD(136)] | yes (1)
CCCS(=O)(=O)c1ccc(Nc2nc(N)c(C(=O)c3c(Cl)cccc3Cl)s2)cc1 [DD(185)] | yes (1)
